ASSAY TARGET: EGFR K754E (Homo sapiens, UniProt P00533, K754E)
Construct: expressed in transfected cells; host or cells: Ba/F3 cells, retroviral pBabe-Puro vector
ASSAY PROTOCOL: Ba/F3 drug screening, Cell Titer Glo, IC50 Mut/WT
Type: cell-based
ASSAY CONDITIONS: Classical-Like, 72 hours
Mark label 0 for ratio of IC50 for cells with mutant EGFR to IC50 for cells with wildtype EGFR (Mut/WT) values under 0.007, and label 1 for everything at or above.

# COMPOUND, CATEGORY LABEL
data = [
    ("C=CC(=O)N[C@H]1C=C(C)c2c(-c3cnc4ccccc4c3)c3c(N)ncnc3n2C1 [TAS 6417]", "label 0"),
    ("C=CC(=O)N1CC[C@@H](Oc2nc(Nc3ccc(N4CCC(N5CCN(C)CC5)CC4)cc3)c(C(N)=O)nc2CC)C1 [Naquotinib]", "label 1"),
    ("COc1cc2ncnc(Nc3cccc(Cl)c3F)c2cc1OC(=O)N1CCN(C)C[C@H]1C [AZD3759]", "label 1"),
    ("CNC(=O)CN1CCC(Oc2cc3c(Nc4cccc(Cl)c4F)ncnc3cc2OC)CC1 [Sapatinib]", "label 0"),
    ("CN(C)C/C=C/C(=O)Nc1cc2c(Nc3ccc(Cl)c(Br)c3)ncnc2cn1 [Tarlox-TKI]", "label 1"),
    ("C=CC(=O)Nc1cc(Nc2nccc(-c3c[nH]c4ccccc34)n2)c(OC)cc1N(C)CCN(C)C [AZ5104]", "label 1"),
    ("C=CC(=O)Nc1cc(Nc2nccc(-n3cc(CN(C)C)c(-c4ccccc4)n3)n2)c(OC)cc1N1CCOCC1 [Lazertinib]", "label 1"),
    ("COc1cc2ncnc(Nc3ccc(F)c(Cl)c3)c2cc1NC(=O)/C=C/CN1CCCCC1 [Dacomitinib]", "label 1"),
]

====

Listed molecules paired with reported ratio of IC50 for cells with mutant EGFR to IC50 for cells with wildtype EGFR (Mut/WT)
ASSAY TARGET: EGFR D761N (Homo sapiens, UniProt P00533, D761N)
Construct: expressed in transfected cells; host or cells: Ba/F3 cells, retroviral pBabe-Puro vector
ASSAY PROTOCOL: Ba/F3 drug screening, Cell Titer Glo, IC50 Mut/WT
Assay type: cell-based
ASSAY CONDITIONS: Classical-Like, 72 hours
REPORTED METRIC: ratio of IC50 for cells with mutant EGFR to IC50 for cells with wildtype EGFR (Mut/WT)

# STRUCTURE NOTATION, TEST VALUE
rows = [
    ("C=CC(=O)Nc1cc(Nc2nccc(-n3cc(CN(C)C)c(-c4ccccc4)n3)n2)c(OC)cc1N1CCOCC1", 0.01957),
    ("COc1cc2ncnc(Nc3ccc(F)c(Cl)c3)c2cc1NC(=O)/C=C/CN1CCCCC1", 0.0008794),
    ("CNC(=O)CN1CCC(Oc2cc3c(Nc4cccc(Cl)c4F)ncnc3cc2OC)CC1", 0.001814),
    ("Cc1cc(C(=O)Nc2nc3cccc(Cl)c3n2[C@@H]2CCCCN(C(=O)/C=C/CN(C)C)C2)ccn1", 0.0009686),
    ("C=CC(=O)N[C@H]1C=C(C)c2c(-c3cnc4ccccc4c3)c3c(N)ncnc3n2C1", 0.2474),
    ("C=CC(=O)N1CC[C@@H](Oc2nc(Nc3ccc(N4CCC(N5CCN(C)CC5)CC4)cc3)c(C(N)=O)nc2CC)C1", 0.1966),
    ("C=CC(=O)Nc1cccc(Oc2nc(Nc3ccc(N4CCN(C)CC4)cc3)nc3ccsc23)c1", 0.1654),
    ("C=CC(=O)Nc1cc(Nc2nccc(-c3c[nH]c4ccccc34)n2)c(OC)cc1N(C)CCN(C)C", 0.3285),
    ("CN(C)C/C=C/C(=O)Nc1cc2c(Nc3ccc(Cl)c(Br)c3)ncnc2cn1", 0.1319),
    ("COc1cc2ncnc(Nc3cccc(Cl)c3F)c2cc1OC(=O)N1CCN(C)C[C@H]1C", 0.6757),
    ("C=CC(=O)Nc1cc(Nc2ncc(C(=O)OC(C)C)c(-c3cn(C)c4ccccc34)n2)c(OC)cc1N(C)CCN(C)C", 0.363),
]
